biological target: HSP90 (Homo sapiens); experiment: HSP90 affinity, competition assay with geldanamycin; format: binding
pIC50: −log10 of the molar value.
Quantity: pIC50

{"Compound": "C[C@@H]1C/C=C/CC/C=C/C(=O)Cc2c(Cl)c(O)cc(O)c2C(=O)O1 [pochonin D, reference compound]", "Value": 7.10}
{"Compound": "C[C@@H]1CC2O[C@@H]2CC/C=C/C(=O)Cc2c(Cl)c(O)cc(O)c2C(=O)O1 (some centres unmarked)", "Value": 7.05}

====

target: TIE2 (Homo sapiens); construct: host or cells: Sf9 insect cells (baculovirus); experiment: Radiometric protein kinase assay, TIE2; format: biochemical; conditions: 1 μM ATP; read-out: Inhibitory activity (IC50:μM) TIE2
Sequence (Q02763 23-1124): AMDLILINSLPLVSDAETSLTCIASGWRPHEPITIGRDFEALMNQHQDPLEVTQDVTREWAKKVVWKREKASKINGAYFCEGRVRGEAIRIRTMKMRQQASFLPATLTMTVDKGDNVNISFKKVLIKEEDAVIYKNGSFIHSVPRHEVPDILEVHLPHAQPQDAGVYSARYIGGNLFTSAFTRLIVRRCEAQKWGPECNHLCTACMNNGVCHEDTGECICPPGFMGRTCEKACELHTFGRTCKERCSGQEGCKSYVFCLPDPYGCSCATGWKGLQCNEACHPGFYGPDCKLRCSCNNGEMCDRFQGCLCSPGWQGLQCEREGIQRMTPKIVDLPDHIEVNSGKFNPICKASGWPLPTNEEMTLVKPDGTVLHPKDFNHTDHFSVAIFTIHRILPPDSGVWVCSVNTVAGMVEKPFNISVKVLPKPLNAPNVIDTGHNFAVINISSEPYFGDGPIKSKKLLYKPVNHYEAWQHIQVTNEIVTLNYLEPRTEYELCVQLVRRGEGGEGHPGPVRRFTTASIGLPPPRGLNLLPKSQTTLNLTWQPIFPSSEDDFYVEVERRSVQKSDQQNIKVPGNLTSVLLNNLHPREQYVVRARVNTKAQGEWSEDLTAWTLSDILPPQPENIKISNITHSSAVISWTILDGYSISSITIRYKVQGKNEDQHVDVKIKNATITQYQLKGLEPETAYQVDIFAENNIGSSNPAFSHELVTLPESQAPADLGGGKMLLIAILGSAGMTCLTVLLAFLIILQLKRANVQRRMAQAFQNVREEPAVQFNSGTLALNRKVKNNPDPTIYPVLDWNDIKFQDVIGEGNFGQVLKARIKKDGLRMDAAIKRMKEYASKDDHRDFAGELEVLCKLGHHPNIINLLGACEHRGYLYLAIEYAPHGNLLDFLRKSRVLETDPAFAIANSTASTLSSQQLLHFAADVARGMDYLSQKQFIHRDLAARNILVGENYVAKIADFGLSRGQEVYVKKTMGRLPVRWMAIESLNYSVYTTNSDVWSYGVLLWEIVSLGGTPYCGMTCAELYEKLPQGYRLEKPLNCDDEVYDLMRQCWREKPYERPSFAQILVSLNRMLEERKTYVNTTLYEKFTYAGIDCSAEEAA
Quantity: IC50 (µM)

{"Molecule": "COC1CC/C=C/C[C@H](c2ccccc2)OC(=O)c2c(O)cc(O)c(Cl)c2CC(=O)C1 (stereo partly drawn) [A-2]", "Quantity": "IC50", "Value": 16}

P: O=C1Cc2c(Cl)c(O)cc(O)c2C(=O)O[C@H](c2ccccc2)C/C=C/CCC(Cl)C1 (stereo partly drawn) [A-3]
Q: O=C1/C=C/CCC2OC2C[C@@H](Cc2ccccc2)OC(=O)c2c(O)cc(O)cc2C1 (stereo partly drawn) [A-6]
Between P and Q , whose measured IC50 reads higher? Answer format: the label of the selected item.
Q

====

biological target: VEGF-R2 (Homo sapiens); construct: host or cells: Sf9 insect cells (baculovirus); assay: Radiometric protein kinase assay, VEGF-R2; assay type: biochemical; details: 1 μM ATP; read-out: Inhibitory activity (IC50:μM) VEGF-R2
Sequence (P35968 20-1356): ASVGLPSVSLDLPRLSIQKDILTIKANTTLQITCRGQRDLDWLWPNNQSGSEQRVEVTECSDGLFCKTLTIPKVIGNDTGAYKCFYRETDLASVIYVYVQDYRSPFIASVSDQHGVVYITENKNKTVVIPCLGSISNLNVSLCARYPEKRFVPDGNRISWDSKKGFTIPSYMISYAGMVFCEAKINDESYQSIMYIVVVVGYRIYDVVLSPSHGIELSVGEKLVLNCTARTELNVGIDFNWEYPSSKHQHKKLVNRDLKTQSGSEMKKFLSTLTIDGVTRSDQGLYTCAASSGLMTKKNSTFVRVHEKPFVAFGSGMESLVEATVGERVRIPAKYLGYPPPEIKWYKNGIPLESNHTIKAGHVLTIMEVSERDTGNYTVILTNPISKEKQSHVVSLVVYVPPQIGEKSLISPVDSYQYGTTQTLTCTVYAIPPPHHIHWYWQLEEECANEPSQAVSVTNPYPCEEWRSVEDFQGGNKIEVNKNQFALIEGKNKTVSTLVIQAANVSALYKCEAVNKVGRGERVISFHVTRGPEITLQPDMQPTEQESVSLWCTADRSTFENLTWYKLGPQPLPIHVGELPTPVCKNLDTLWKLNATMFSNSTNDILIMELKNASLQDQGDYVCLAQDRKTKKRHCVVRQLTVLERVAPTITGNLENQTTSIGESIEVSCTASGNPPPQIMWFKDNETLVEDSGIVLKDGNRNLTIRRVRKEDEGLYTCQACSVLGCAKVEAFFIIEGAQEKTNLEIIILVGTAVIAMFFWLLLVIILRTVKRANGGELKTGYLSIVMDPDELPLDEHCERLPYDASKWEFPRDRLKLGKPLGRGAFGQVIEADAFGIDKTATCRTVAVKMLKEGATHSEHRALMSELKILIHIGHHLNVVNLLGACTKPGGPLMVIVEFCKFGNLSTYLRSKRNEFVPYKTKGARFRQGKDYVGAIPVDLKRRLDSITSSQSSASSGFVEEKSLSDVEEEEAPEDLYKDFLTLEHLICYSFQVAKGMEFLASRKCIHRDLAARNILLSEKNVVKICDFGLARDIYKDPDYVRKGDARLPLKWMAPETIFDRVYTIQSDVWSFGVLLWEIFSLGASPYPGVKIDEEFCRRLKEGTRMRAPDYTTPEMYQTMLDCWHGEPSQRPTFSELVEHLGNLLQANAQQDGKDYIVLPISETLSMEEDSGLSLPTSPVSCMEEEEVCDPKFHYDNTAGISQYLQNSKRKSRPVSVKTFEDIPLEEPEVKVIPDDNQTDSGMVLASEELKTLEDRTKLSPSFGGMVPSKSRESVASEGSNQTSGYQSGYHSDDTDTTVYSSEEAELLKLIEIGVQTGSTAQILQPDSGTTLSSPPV
Quantity: IC50 (µM)

// worked examples, IC50 included
{"Molecule": "O=C1/C=C/CCC2OC2C[C@H](c2ccccc2)OC(=O)c2c(O)cc(O)c(Cl)c2C1 (stereo partly drawn)", "Target": "VEGF-R2 (Homo sapiens)", "Value": 19}
{"Molecule": "O=C1/C=C/CCC2OC2C[C@@H](Cc2ccccc2)OC(=O)c2c(O)cc(O)cc2C1 (stereo partly drawn)", "Target": "VEGF-R2 (Homo sapiens)", "Value": 25}
{"Molecule": "C[C@@H]1C[C@H]2O[C@@H]2/C=C\\C=C\\C(=O)Cc2c(Cl)c(O)cc(O)c2C(=O)O1", "Target": "VEGF-R2 (Homo sapiens)", "Value": 49}
{"Molecule": "O=C1Cc2c(Cl)c(O)cc(O)c2C(=O)O[C@H](c2ccccc2)C/C=C/CCC(Cl)C1 (stereo partly drawn)", "Target": "VEGF-R2 (Homo sapiens)", "Value": 20}

a: COC1CC/C=C/C[C@H](c2ccccc2)OC(=O)c2c(O)cc(O)c(Cl)c2CC(=O)C1 (stereo partly drawn)
b: CC(C)[C@@H]1CC2OC2CC/C=C/C(=O)Cc2c(Cl)c(O)cc(O)c2C(=O)O1 (stereo partly drawn)
Higher IC50 between a and b ? Let me know the label of the one you choose.
b
(b: 30 µM, a: 19 µM)

====

target: EPHB4 (Homo sapiens, UniProt P54760); construct: host or cells: Sf9 insect cells (baculovirus); assay: Radiometric protein kinase assay, EPHB4; type: biochemical; details: 1 μM ATP; read-out: Inhibitory activity (IC50:μM) EPHB4
Sequence (P54760 16-987): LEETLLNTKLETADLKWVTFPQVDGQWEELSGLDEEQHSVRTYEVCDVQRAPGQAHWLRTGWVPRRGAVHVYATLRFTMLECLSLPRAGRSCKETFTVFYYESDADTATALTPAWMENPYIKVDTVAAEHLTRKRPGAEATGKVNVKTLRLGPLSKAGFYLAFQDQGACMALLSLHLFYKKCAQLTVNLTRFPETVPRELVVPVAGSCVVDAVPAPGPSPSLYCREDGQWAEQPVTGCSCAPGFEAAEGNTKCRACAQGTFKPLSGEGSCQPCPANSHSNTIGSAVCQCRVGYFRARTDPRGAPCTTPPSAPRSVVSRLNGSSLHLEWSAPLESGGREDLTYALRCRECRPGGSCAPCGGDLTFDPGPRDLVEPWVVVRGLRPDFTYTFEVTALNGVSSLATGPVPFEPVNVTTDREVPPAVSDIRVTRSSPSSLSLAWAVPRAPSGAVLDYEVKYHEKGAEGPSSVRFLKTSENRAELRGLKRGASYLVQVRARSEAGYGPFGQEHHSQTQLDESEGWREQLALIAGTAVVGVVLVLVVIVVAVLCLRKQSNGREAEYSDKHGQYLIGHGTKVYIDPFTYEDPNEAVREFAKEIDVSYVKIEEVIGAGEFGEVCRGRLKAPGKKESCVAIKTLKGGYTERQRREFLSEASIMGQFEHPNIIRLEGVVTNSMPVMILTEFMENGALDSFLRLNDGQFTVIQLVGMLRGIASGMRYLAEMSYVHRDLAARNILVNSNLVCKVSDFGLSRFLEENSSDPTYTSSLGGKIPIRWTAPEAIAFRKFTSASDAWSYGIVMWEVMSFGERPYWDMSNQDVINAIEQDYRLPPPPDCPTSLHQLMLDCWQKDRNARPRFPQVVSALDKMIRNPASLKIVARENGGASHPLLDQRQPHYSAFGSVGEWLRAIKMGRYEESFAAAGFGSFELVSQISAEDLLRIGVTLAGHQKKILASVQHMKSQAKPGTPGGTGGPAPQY
Quantity: IC50 (µM)

Here are 2 compounds together with their reported answers.
{"Compound": "O=C1Cc2c(Cl)c(O)cc(O)c2C(=O)O[C@H](c2ccccc2)C/C=C/CCC(Cl)C1 (stereo partly shown) [A-3]", "Target": "EPHB4 (Homo sapiens, UniProt P54760)", "IC50, µM": 40}
{"Compound": "O=C1/C=C/CCC2OC2C[C@H](c2ccccc2)OC(=O)c2c(O)cc(O)c(Cl)c2C1 (stereo partly shown) [A-5]", "Target": "EPHB4 (Homo sapiens, UniProt P54760)", "IC50, µM": 49}

I: O=C1/C=C/CCC2OC2C[C@@H](Cc2ccccc2)OC(=O)c2c(O)cc(O)cc2C1 (stereo partly shown) [A-6]
II: COC1CC/C=C/C[C@H](c2ccccc2)OC(=O)c2c(O)cc(O)c(Cl)c2CC(=O)C1 (stereo partly shown) [A-2]
Lab notebook, comparison: I versus II , higher IC50 goes to which? Could you answer with the label of the item you picked?
I
(I: 40 µM, II: 16 µM)
